# MEASURED TARGET: T1, human galectin-10-His (recombinant human galectin-10 with TEV-cleavable N-terminal His-tag) (human)
# T1 construct: SEC-MALLS: dimer in solution; also called Gal10-His; humanGal10-His
# T1 chain: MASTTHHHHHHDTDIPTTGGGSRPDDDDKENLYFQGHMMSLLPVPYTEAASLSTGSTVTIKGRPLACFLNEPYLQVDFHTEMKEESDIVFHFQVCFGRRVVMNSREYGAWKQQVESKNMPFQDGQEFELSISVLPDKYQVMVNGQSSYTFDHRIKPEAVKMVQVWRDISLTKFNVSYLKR
# MEASUREMENT PROTOCOL: BLI tandem on galectin-10-His; competitor: saturating 1D11 mIgG1 (10 ug/mL)
PARAMETER: binding signal (nm)
Enter your answer as a number in nm; do not include the unit.

Answer with the recorded binding signal (nm) for the binder listed here: 2F09 mouse IgG1 (antibody, V domains shown, VH on mouse IgG1 heavy chain constant domains (CH1-CH2-CH3), VL on mouse lambda light chain constant domain; also called 2F09 mIgG1) VH: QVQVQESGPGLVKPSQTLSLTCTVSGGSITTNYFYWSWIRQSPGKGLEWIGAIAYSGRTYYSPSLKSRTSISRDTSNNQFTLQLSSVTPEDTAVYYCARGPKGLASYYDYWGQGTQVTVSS VL: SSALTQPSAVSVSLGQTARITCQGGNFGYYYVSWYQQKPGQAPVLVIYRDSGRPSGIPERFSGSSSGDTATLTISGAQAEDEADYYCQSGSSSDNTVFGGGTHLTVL
0.12
